Value source: patent US9708336B2

Below is a list of entries, each paired with its recorded IC50 value.
# target or test system: VIM-1 (Pseudomonas aeruginosa (strain ATCC 15692 / DSM 22644 / CIP 104116 / JCM 14847 / LMG 12228 / 1C / PRS 101 / PAO1), UniProt A0A0F7KYQ8)
# test summary: Enzyme activity: determination of IC50, fluorescence assay with CCF2-FA substrate (VIM-1)
# Format: biochemical
# details: VIM-1 enzyme, CCF2-FA fluorescence assay; read-out: VIM-1 IC50
A number alone suffices; assume nM.

State its IC50: NS(=O)(=O)c1cccc(-c2ccc(CNCCN3CCCC3)cc2)c1-c1nn[nH]n1 [Example 328]
473

State its IC50: Cc1ccc(-c2cccc(S(N)(=O)=O)c2-c2nnn[nH]2)nc1 [Example 398]
312

State its IC50: NS(=O)(=O)c1cccc(-c2ccc(CO)nc2)c1-c1nnn[nH]1 [Example 258]
147

State its IC50: Nc1n[nH]c2cc(-c3ccc(C(F)(F)F)c(S(N)(=O)=O)c3-c3nnn[nH]3)ccc12 [Example 477]
0.722

State its IC50: NS(=O)(=O)c1cccc(-c2ccn3cncc3c2)c1-c1nn[nH]n1 [Example 247]
116
